Assay: Inhibition of calf thymus DNA polymerase alpha by [3H]dTTP incorporation assay
Set-up: species or system Bos taurus
Details: read-out: IC50
measured_endpoint: IC50 (nM)

CC12C=C(O)C(=O)C=C1c1cccc(O)c1C(=O)O2 (stereo unspecified) = 240

a: COc1cc(O)c2c(c1)C1=CC(=O)C(O)=CC1(C)OC2=O (stereo unspecified) [DEHYDROALTENUSIN]
b: CCCOc1cc(O)c2c(c1)C1=CC(=O)C(O)=CC1(C)OC2=O (stereo unspecified)
c: CCCCCCOc1cc(O)c2c(c1)C1=CC(=O)C(O)=CC1(C)OC2=O (stereo unspecified)
**Query** Hello, I need these entries ordered by IC50, highest reading first. Thanks! A ranking is expressed here by listing the labels in the requested order.
**Result** a, b, c
(a: 680 nM, b: 180 nM, c: 90 nM)
